Molecular target: T1, Bdf1 bromodomain 2 (GST-tagged, WT) (Saccharomyces cerevisiae (strain ATCC …, UniProt P35817))
T1 chain: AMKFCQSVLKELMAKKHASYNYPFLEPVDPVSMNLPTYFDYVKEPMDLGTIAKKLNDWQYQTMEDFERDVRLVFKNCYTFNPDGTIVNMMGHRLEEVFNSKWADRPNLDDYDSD
Test: histone peptide array probed with recombinant GST-bromodomain, signal normalised to myc peptide control
Non-standard residues stand in square brackets, D forms with d. No end group written: not given here. Arg(Me2s) = CN=C(NC)NCCC[C@H](N)C(=O)O
metric: binding score

1) ARTKQTARKSTGGKAPRKQ (A Rme2s T Kme1 Q T A Rme2a Kme2 S T G G K A P R K Q) :: 0

[I] ARTKQTARKSTGGKAPRKQ (A R T K Q T A R Kme3 S T G G Kac A P R K Q)
[II] A[Arg(Me2s)]TK(Ac)QTARKSTGGKAPRKQ
[III] ARTKQTARKSTGGKAPRKQ (A Rme2a pT Kme3 Q T A R K S T G G K A P R K Q)
Order the 3 binders from highest to lowest binding score. Lab note: final answer is the ordered label list. I, II, III
(I: 0.0479, II: 0.00482, III: 0.000885)
